Hi there, I'd appreciate the recorded polymerase ribozyme fitness (log ratio) for every entry that follows.
B1: TPR t1 (parent)
chain: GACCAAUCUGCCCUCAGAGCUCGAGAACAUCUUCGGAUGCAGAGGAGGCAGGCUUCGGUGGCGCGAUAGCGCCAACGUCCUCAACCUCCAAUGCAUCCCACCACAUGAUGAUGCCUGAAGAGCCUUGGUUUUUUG

# Variants of: B1
# Protocol summary: polymerase ribozyme fitness, log enrichment relative to wild type (log ratio); higher = more active; in vitro selection for triplet polymerase activity

For record C8G G65C C114U C123A the listed polymerase ribozyme fitness (log ratio) is -7.69

For record G60U U87G U129G the listed polymerase ribozyme fitness (log ratio) is -0.951

For record C12G A29U C56U A118C C123G the listed polymerase ribozyme fitness (log ratio) is -0.961

For record U9G C20U G51U C94U the listed polymerase ribozyme fitness (log ratio) is -4.89

For record A2U U87G the listed polymerase ribozyme fitness (log ratio) is -2.24

For record A16G C76G G117A C123G G135U the listed polymerase ribozyme fitness (log ratio) is -1.57

For record A5G C12A U38A G60A A121C G135U the listed polymerase ribozyme fitness (log ratio) is 0.199

For record C31U U59C G120U G127C the listed polymerase ribozyme fitness (log ratio) is -5.99

For record A90G C104U U112C A121U U130C the listed polymerase ribozyme fitness (log ratio) is 2.04

For record A6U C70U A105U U125A the listed polymerase ribozyme fitness (log ratio) is -3.91

For record A5G C49A C53U C85A G135U the listed polymerase ribozyme fitness (log ratio) is -3.84

For record G71U C101U U130G the listed polymerase ribozyme fitness (log ratio) is -0.458

For record C8G C80G the listed polymerase ribozyme fitness (log ratio) is -4.19

For record G61A C124G the listed polymerase ribozyme fitness (log ratio) is 1.77

For record G117C G120U U131G the listed polymerase ribozyme fitness (log ratio) is -4.67

For record C72U C82A C115A the listed polymerase ribozyme fitness (log ratio) is -1.79

For record A37U C115U the listed polymerase ribozyme fitness (log ratio) is -0.707

For record A6U C12U G110U U130C the listed polymerase ribozyme fitness (log ratio) is -0.715

For record C8G C73U A91G C101G the listed polymerase ribozyme fitness (log ratio) is -2.3

For record A18G C22A G42C U54G G63C U112G the listed polymerase ribozyme fitness (log ratio) is -5.39

For record C12A C49U the listed polymerase ribozyme fitness (log ratio) is -1.61

For record A16G G69U C73U C99U the listed polymerase ribozyme fitness (log ratio) is -2.5

For record C70A C99U the listed polymerase ribozyme fitness (log ratio) is -5.26

For record C49A C73U C88U C94U C123U U132G G135U the listed polymerase ribozyme fitness (log ratio) is -1.74

For record G60U G69A the listed polymerase ribozyme fitness (log ratio) is -4.86

For record G48U C49G the listed polymerase ribozyme fitness (log ratio) is -0.587

For record A27G C98A the listed polymerase ribozyme fitness (log ratio) is -7.76

For record G36U G48A the listed polymerase ribozyme fitness (log ratio) is -1.52

For record C11A C85U U133G the listed polymerase ribozyme fitness (log ratio) is -2.41

For record G36U C40U A121U G122C the listed polymerase ribozyme fitness (log ratio) is -0.484

For record `C98U` the listed polymerase ribozyme fitness (log ratio) is -1.2

For record G10U A50C C80U G120U the listed polymerase ribozyme fitness (log ratio) is -0.0895

For record C40U C104A A118U the listed polymerase ribozyme fitness (log ratio) is -1.26

For record G60A C82A A95G the listed polymerase ribozyme fitness (log ratio) is 0.0608

For record C20A G61U G63A C72U U92C C99G C101A C123U the listed polymerase ribozyme fitness (log ratio) is -6.1

For record C8U A24G U112G the listed polymerase ribozyme fitness (log ratio) is -0.0167

For record A83C G113U the listed polymerase ribozyme fitness (log ratio) is -3.09

For record C56G C89G A90C the listed polymerase ribozyme fitness (log ratio) is -3.29

For record A66C G113A the listed polymerase ribozyme fitness (log ratio) is -1.78

For record C22G G63A the listed polymerase ribozyme fitness (log ratio) is -4.12

For record U21A A27C the listed polymerase ribozyme fitness (log ratio) is -3.89

For record C3A G71U C115G A118U the listed polymerase ribozyme fitness (log ratio) is -4.97

For record A50U G63U C104A the listed polymerase ribozyme fitness (log ratio) is -5.48

For record A84U C97A the listed polymerase ribozyme fitness (log ratio) is -5.72

For record C20U U55A C79U G120A the listed polymerase ribozyme fitness (log ratio) is -1.1

For record U81G G120A the listed polymerase ribozyme fitness (log ratio) is -3.83
